Target: RARβ (Homo sapiens)
Sequence (P10826 whole entry, species assumed): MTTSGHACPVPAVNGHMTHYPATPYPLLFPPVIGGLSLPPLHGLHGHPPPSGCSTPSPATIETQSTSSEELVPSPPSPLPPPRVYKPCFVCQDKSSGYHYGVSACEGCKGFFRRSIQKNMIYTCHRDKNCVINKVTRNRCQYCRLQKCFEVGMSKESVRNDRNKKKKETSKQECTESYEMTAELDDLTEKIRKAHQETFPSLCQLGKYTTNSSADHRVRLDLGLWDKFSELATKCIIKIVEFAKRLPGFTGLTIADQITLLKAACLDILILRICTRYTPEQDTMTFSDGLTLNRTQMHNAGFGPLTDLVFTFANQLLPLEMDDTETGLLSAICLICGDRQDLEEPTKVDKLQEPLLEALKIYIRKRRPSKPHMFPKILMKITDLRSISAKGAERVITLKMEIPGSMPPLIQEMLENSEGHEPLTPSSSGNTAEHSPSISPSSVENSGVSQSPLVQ
Experiment: ligand binding assay
Conditions: read-out: RAR Bind. Ki (nM) β
reported metric: Ki (nM)
Please give a number only; it is taken to be in nM.

{"compound": "CCN(c1ccc(C(=O)O)cc1)c1cc2c(cc1OCc1cc(C(C)(C)C)cc(C(C)(C)C)c1)C(C)(C)CC=C2C(C)C [Compound 156]", "measured target": "RARβ (Homo sapiens)", "reported metric": "Ki", "result": 1500}

# context switch: different compound, same Ki
Lookup result for CCCCOc1cc2c(cc1N(CC)c1ccc(C(=O)O)cc1)C(C(C)C)=CCC2(C)C [Compound 152] ; measured Ki: 2300

---

Biological target: UniProt:P28704
Assay: holoreceptor transactivation assay
Assay type: cell-based
Settings: NA = Not Active; read-out: RXR Trans. EC50 (nM) β
reported metric: EC50 (nM)
Please give a number only; it is taken to be in nM.

{"compound": "CCCN(c1ccc(C(=O)O)cc1)c1ccc2c(c1)C(C(C)(C)C)=CCC2(C)C [Compound 89]", "result": 8}
{"compound": "CCC1=CCC(C)(C)c2cc(C)c(N(CC)c3ccc(C(=O)O)cc3)cc21 [Compound 24]", "result": 10}
{"compound": "CCN(c1ccc2c(c1)C(C(C)C)=CCC2(C)C)c1ccc(C(=O)O)cn1 [Compound 172]", "result": 13}

# context switch: different compound, same EC50
Lookup result for CCN(c1ccc2c(c1)C(C(C)(C)C)=CCC2(C)C)c1ccc(C(=O)O)cn1 [Compound 173] ; measured EC50: 9

---

Attribute: Emax
Biological target: RXRα (Homo sapiens)
Sequence (P19793 1-462): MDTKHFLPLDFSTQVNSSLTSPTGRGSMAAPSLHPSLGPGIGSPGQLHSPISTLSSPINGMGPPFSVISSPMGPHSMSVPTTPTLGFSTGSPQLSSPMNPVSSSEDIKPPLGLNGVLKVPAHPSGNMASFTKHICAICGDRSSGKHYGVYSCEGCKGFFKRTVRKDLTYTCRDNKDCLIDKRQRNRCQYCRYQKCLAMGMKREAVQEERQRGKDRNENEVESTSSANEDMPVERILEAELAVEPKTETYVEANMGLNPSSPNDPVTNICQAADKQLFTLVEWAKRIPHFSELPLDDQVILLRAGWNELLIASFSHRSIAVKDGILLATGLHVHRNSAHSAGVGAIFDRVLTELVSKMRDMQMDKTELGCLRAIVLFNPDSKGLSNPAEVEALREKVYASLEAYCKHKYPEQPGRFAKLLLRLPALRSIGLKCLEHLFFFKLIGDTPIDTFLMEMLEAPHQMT
Assay: holoreceptor transactivation assay
Settings: read-out: % efficacy, RXR Trans. α
Please give a number only; it is taken to be in %.

{"molecule": "CCC1=CCC(C)(C)c2cc(N(CC)c3ccc(C(=O)O)cc3)ccc21 [Compound 75]", "measured target": "RXRα (Homo sapiens)", "reported metric": "Emax", "unit symbol": "%", "result": 100}

Lookup result for CCN(c1ccc(C(=O)O)cc1)c1cc2c(cc1OC)C(C)(C)CC=C2C(C)C [Compound 148] ; measured Emax: 64

Lookup result for CCN(c1ccc(C(=O)O)cc1)c1cc2c(cc1C)C(C)(C)CC=C2C(C)C [Compound 25] ; measured Emax: 97

Lookup result for CCC1=CCC(C)(C)c2cc(C)c(N(CC)c3ccc(C(=O)O)cc3)cc21 [Compound 24] ; measured Emax: 100

---

Attribute: EC50
Target: RXRα (Homo sapiens)
Sequence (P19793 1-462): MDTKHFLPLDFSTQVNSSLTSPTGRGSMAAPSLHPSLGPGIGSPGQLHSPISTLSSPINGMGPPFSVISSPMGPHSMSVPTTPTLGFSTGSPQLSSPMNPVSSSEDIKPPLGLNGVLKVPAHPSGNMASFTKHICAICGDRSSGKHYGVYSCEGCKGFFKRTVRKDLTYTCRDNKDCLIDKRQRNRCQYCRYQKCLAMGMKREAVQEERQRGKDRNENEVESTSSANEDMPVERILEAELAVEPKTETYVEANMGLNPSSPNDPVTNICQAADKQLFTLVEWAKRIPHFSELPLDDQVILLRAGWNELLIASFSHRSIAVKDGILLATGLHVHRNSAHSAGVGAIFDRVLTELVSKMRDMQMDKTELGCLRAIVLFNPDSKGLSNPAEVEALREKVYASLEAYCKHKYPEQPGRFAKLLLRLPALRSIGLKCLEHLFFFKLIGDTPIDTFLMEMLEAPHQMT
Assay: holoreceptor transactivation assay
Please give a number only; it is taken to be in nM.

The following molecules have reported results that may help.
{"molecule": "CCCN(c1ccc(C(=O)O)cc1)c1cc2c(cc1C)C(C(C)C)=CCC2(C)C [Compound 54]", "measured target": "RXRα (Homo sapiens)", "EC50 [nM]": 378}
{"molecule": "CCN(c1ccc2c(c1)C(C(C)(C)C)=CCC2(C)C)c1ccc(C(=O)O)cn1 [Compound 173]", "measured target": "RXRα (Homo sapiens)", "EC50 [nM]": 1}

# context switch: different molecule, same EC50
Lookup result for CCN(c1ccc2c(c1)C(C)=CCC2(C)C)c1ccc(C(=O)O)cn1 [Compound 170] ; measured EC50: 33

---

Target: RXRβ (UniProt P28704)
Assay: holoreceptor transactivation assay
Assay type: cell-based
Conditions: NA = Not Active; read-out: RXR Trans. EC50 (nM) β
# label = fulfilled if EC50 < 8 nM else not fulfilled

Example entries and their recorded answers appear below.
{"smiles code": "CCCN(c1ccc(C(=O)O)cc1)c1cc2c(cc1C)C(C)=CCC2(C)C", "answer label": "not fulfilled"}
{"smiles code": "CCN(c1ccc(C(=O)O)cc1)c1cc2c(cc1C)C(C)(C)CC=C2C(C)(C)C", "answer label": "fulfilled"}
{"smiles code": "CCN(c1ccc(C(=O)O)cc1)c1cc2c(cc1C)C(C)(C)CC=C2C(C)C", "answer label": "fulfilled"}

Ask: Answer whether the molecule CCCN(c1ccc(C(=O)O)cc1)c1cc2c(cc1C)C(C(C)C)=CCC2(C)C has EC50 strictly less than 8 nM
Reply: not fulfilled

Ask: Answer whether the molecule CCN(c1ccc(C(=O)O)cc1)c1cc2c(cc1C)C(C(C)C)=CCC2(C)C has EC50 strictly less than 8 nM
Reply: not fulfilled

Ask: Answer whether the molecule Cc1cc2c(cc1N(C)c1ccc(C(=O)O)cc1)C(C)(C)CC=C2C(C)C has EC50 strictly less than 8 nM
Reply: not fulfilled

---

Target: RXRα (Homo sapiens, UniProt P19793)
Assay: holoreceptor transactivation assay
Settings: read-out: % efficacy, RXR Trans. α
reported metric: Emax (%)
Please give a number only; it is taken to be in %.

{"smiles code": "CCCN(c1ccc(C(=O)O)cc1)c1ccc2c(c1)C(C(C)(C)C)=CCC2(C)C", "Emax, %": 108}
{"smiles code": "CCN(c1ccc(C(=O)O)cc1)c1cc2c(cc1C)C(C)(C)CC=C2C(C)(C)C", "Emax, %": 85}

Per the reported RXRα (Homo sapiens, UniProt P19793) data, CCN(c1ccc(C(=O)O)cc1)c1cc2c(cc1C)C(C(C)(C)C)=CCC2(C)C has Emax of 88

Per the reported RXRα (Homo sapiens, UniProt P19793) data, CCC1=CCC(C)(C)c2cc(N(CC)c3ccc(C(=O)O)cc3)c(C)cc21 has Emax of 100

Per the reported RXRα (Homo sapiens, UniProt P19793) data, CCN(c1ccc(C(=O)O)cc1)c1cc2c(cc1C)C(C)(C)CC=C2C has Emax of 101

Per the reported RXRα (Homo sapiens, UniProt P19793) data, CCN(c1ccc2c(c1)C(C(C)(C)C)=CCC2(C)C)c1ccc(C(=O)O)cn1 has Emax of 120

Per the reported RXRα (Homo sapiens, UniProt P19793) data, CCN(c1ccc(C(=O)O)cc1)c1cc2c(cc1C)C(C)=CCC2(C)C has Emax of 50

Per the reported RXRα (Homo sapiens, UniProt P19793) data, CC1=CCC(C)(C)c2cc(N(C)c3ccc(C(=O)O)cc3)c(C)cc21 has Emax of 30

Per the reported RXRα (Homo sapiens, UniProt P19793) data, CCCN(c1ccc(C(=O)O)cc1)c1cc2c(cc1C)C(C(C)C)=CCC2(C)C has Emax of 66

Per the reported RXRα (Homo sapiens, UniProt P19793) data, CCN(c1ccc2c(c1)C(C(C)C)=CCC2(C)C)c1ccc(C(=O)O)cn1 has Emax of 109

Per the reported RXRα (Homo sapiens, UniProt P19793) data, CCCN(c1ccc(C(=O)O)cc1)c1cc2c(cc1C)C(C)=CCC2(C)C has Emax of 55

Per the reported RXRα (Homo sapiens, UniProt P19793) data, C=CCN(c1ccc(C(=O)O)cc1)c1ccc2c(c1)C(C(C)(C)C)=CCC2(C)C has Emax of 112

Per the reported RXRα (Homo sapiens, UniProt P19793) data, Cc1cc2c(cc1N(C)c1ccc(C(=O)O)cc1)C(C)(C)CC=C2C(C)C has Emax of 75
